Data origin, for the record: patent US20250114359A1

# SYSTEM UNDER TEST: Trypanosoma cruzi glucokinase (TcGlcK) (Trypanosoma cruzi)
As shown below, each of these compounds has a reported Ki value.

# COMPOUND, Ki [µM]
data = [
    ("Cc1cc2c(c(O)c1-c1c(C)cc3c(c1O)/C(=C\\Nc1c(O)cc(S(=O)(=O)O)c4ccccc14)C(=O)C(O)=C3C(C)C)/C(=C/Nc1c(O)cc(S(=O)(=O)O)c3ccccc13)C(=O)C(O)=C2C(C)C [Inhibitor 29]", 9.6),
    ("Cc1cc2c(C(C)C)c(O)c(O)c(/C=N/NC(=O)c3ccoc3C)c2c(O)c1-c1c(C)cc2c(C(C)C)c(O)c(O)c(/C=N/NC(=O)c3ccoc3C)c2c1O (atropisomer, axis not shown) [Inhibitor 39]", 9.16),
    ("Cc1cc2c(C(C)C)c(O)c(O)c(/C=N/CCOc3ccccc3F)c2c(O)c1-c1c(C)cc2c(C(C)C)c(O)c(O)c(/C=N/CCOc3ccccc3F)c2c1O (atropisomer, axis not shown) [Inhibitor 76]", 105),
    ("Cc1cc2c(c(O)c1-c1c(C)cc3c(c1O)/C(=C/Nc1ccc(N=Nc4ccccc4)cc1)C(=O)C(O)=C3C(C)C)/C(=C/Nc1ccc(N=Nc3ccccc3)cc1)C(=O)C(O)=C2C(C)C (atropisomer, axis not shown) [Inhibitor 18]", 45.5),
]

---

What follows is a collection of Ki values obtained with Trypanosoma cruzi glucokinase (TcGlcK) (Trypanosoma cruzi, UniProt Q4E4E1).
Sequence (Q4E4E1 1-376): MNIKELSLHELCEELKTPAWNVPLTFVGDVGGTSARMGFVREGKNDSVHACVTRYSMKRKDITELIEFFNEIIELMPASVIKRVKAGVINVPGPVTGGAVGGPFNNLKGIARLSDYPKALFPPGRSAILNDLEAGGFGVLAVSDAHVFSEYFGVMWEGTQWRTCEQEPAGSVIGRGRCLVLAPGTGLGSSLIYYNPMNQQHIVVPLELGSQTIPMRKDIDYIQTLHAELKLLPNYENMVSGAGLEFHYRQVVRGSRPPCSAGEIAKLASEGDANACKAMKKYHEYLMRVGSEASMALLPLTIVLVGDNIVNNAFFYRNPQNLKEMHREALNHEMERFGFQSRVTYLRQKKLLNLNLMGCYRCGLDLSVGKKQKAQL

# MOLECULE, Ki
records = [
    ("COc1ccc(CC(=O)N/N=C/c2c(O)c(O)c(C(C)C)c3cc(C)c(-c4c(C)cc5c(C(C)C)c(O)c(O)c(/C=N/NC(=O)Cc6ccc(OC)c(OC)c6)c5c4O)c(O)c23)cc1OC (atropisomer, axis not shown)", "41.6 µM"),
    ("Cc1cc2c(c(O)c1-c1c(C)cc3c(c1O)/C(=C/NCc1cccnc1)C(=O)C(O)=C3C(C)C)/C(=C/NCc1cccnc1)C(=O)C(O)=C2C(C)C (atropisomer, axis not shown)", "123 µM"),
    ("Cc1cc2c(C(C)C)c(O)c(O)c(/C=N/NCc3ccccc3Cl)c2c(O)c1-c1c(C)cc2c(C(C)C)c(O)c(O)c(/C=N/NCc3ccccc3Cl)c2c1O", "56.3 µM"),
    ("COc1cc(/N=C/c2c(O)c(O)c(C(C)C)c3cc(C)c(-c4c(C)cc5c(C(C)C)c(O)c(O)c(/C=N/c6ccc(C)c(OC)c6)c5c4O)c(O)c23)ccc1C (atropisomer, axis not shown)", "29.1 µM"),
    ("Cc1ccc(O)c(/N=C/c2c(O)c(O)c(C(C)C)c3cc(C)c(-c4c(C)cc5c(C(C)C)c(O)c(O)c(/C=N/c6cc(C)ccc6O)c5c4O)c(O)c23)c1 (atropisomer, axis not shown)", "3.02 µM"),
]

---

# reported log10(Ki); entries follow
# SYSTEM UNDER TEST: Trypanosoma cruzi glucokinase (TcGlcK) (Trypanosoma cruzi)
# ASSAY EXPLANATION: Determination of Ki values by type 1 and type 2 Dixon plots;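 note: compounds supplied as 10 mM DMSO stocks (100 µL format), with a non-inhibitory compound run alongside for comparison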
# Format: biochemical
RESULT TYPE: log10(Ki) (log10 of the value in µM)

# COMPOUND, SYSTEM UNDER TEST, log10(Ki)
rows = [
    ("Cc1cc2c(C(C)C)c(O)c(O)c(/C=N/CC34CC5CC(C)(CC(C)(C5)C3)C4)c2c(O)c1-c1c(C)cc2c(C(C)C)c(O)c(O)c(/C=N/C34CC5CC(C)(CC(C)(C5)C3)C4)c2c1O [Inhibitor 50]", "Trypanosoma cruzi glucokinase (TcGlcK) (Trypanosoma cruzi)", 1.71),
    ("CCCCCC1CCC(=O)N1CCN/C=C1\\C(=O)C(O)=C(C(C)C)c2cc(C)c(-c3c(C)cc4c(c3O)/C(=C/NCCN3C(=O)CCC3CCCCC)C(=O)C(O)=C4C(C)C)c(O)c21 (stereo not shown) [Inhibitor 75]", "Trypanosoma cruzi glucokinase (TcGlcK) (Trypanosoma cruzi)", 2.75),
    ("COc1cc(/C=N/c2c(C)n(C)n(-c3ccccc3)c2=O)ccc1O [Inhibitor 62]", "Trypanosoma cruzi glucokinase (TcGlcK) (Trypanosoma cruzi)", 1.30),
    ("COc1c(C)cc(/N=C/c2c(O)c(O)c(C(C)C)c3cc(C)c(-c4c(C)cc5c(C(C)C)c(O)c(O)c(/C=N/c6cc(C)c(OC)c(C)c6)c5c4O)c(O)c23)cc1C (atropisomer, axis not shown) [Inhibitor 49]", "Trypanosoma cruzi glucokinase (TcGlcK) (Trypanosoma cruzi)", 1.21),
    ("COc1cc(NS(=O)(=O)c2ccc(N/C=C3\\C(=O)C(O)=C(C(C)C)c4cc(C)c(-c5c(C)cc6c(c5O)/C(=C/Nc5ccc(S(=O)(=O)Nc7cc(OC)nc(OC)n7)cc5)C(=O)C(O)=C6C(C)C)c(O)c43)cc2)nc(OC)n1 (atropisomer, axis not shown) [Inhibitor 20]", "Trypanosoma cruzi glucokinase (TcGlcK) (Trypanosoma cruzi)", 1.05),
    ("Cc1cc2c(c(O)c1-c1c(C)cc3c(c1O)/C(=C/NCCO)C(=O)C(O)=C3C(C)C)/C(=C/NCCO)C(=O)C(O)=C2C(C)C (atropisomer, axis not shown) [Inhibitor 13]", "Trypanosoma cruzi glucokinase (TcGlcK) (Trypanosoma cruzi)", 2.63),
    ("CC(=O)c1ccc(N/C=C2\\C(=O)C(O)=C(C(C)C)c3cc(C)c(-c4c(C)cc5c(c4O)/C(=C/Nc4ccc(C(C)=O)cc4)C(=O)C(O)=C5C(C)C)c(O)c32)cc1 (atropisomer, axis not shown) [Inhibitor 19]", "Trypanosoma cruzi glucokinase (TcGlcK) (Trypanosoma cruzi)", 1.02),
    ("CN(C)c1ccc(/C=C2/SC(=S)NC2=O)cc1 [Inhibitor 68]", "Trypanosoma cruzi glucokinase (TcGlcK) (Trypanosoma cruzi)", -0.57),
    ("Cc1cc2c(C(C)C)c(O)c(O)c(/C=N/c3ccc4c(c3)CCN4S(C)(=O)=O)c2c(O)c1-c1c(C)cc2c(C(C)C)c(O)c(O)c(/C=N/c3ccc4c(c3)CCN4S(C)(=O)=O)c2c1O (atropisomer, axis not shown) [Inhibitor 51]", "Trypanosoma cruzi glucokinase (TcGlcK) (Trypanosoma cruzi)", -0.10),
    ("Cc1cc2c(C(C)C)c(O)c(O)c(/C=N/CCOc3ccc4c(c3)OCC4)c2c(O)c1-c1c(C)cc2c(C(C)C)c(O)c(O)c(/C=N/CCOc3ccc4c(c3)OCO4)c2c1O (atropisomer, axis not shown) [Inhibitor 41]", "Trypanosoma cruzi glucokinase (TcGlcK) (Trypanosoma cruzi)", 2.52),
    ("Cc1cc2c(c(O)c1-c1c(C)cc3c(c1O)/C(=C\\Nc1ccc(S(=O)(=O)NC(=N)N)cc1)C(=O)C(O)=C3C(C)C)/C(=C/Nc1ccc(S(=O)(=O)NC(=N)N)cc1)C(=O)C(O)=C2C(C)C [Inhibitor 16]", "Trypanosoma cruzi glucokinase (TcGlcK) (Trypanosoma cruzi)", 0.01),
    ("Cc1cc2c(c(O)c1-c1c(C)cc3c(c1O)/C(=C/Nc1ccc(S(=O)(=O)Nc4nccs4)cc1)C(=O)C(O)=C3C(C)C)/C(=C/Nc1ccc(S(=O)(=O)Nc3nccs3)cc1)C(=O)C(O)=C2C(C)C (atropisomer, axis not shown) [Inhibitor 23]", "Trypanosoma cruzi glucokinase (TcGlcK) (Trypanosoma cruzi)", 1.51),
    ("Cc1cc2c(C(C)C)c(O)c(O)c(/C=N/NC(=O)C(C)C)c2c(O)c1-c1c(C)cc2c(C(C)C)c(O)c(O)c(/C=N/NC(=O)C(C)C)c2c1O [Inhibitor 6]", "Trypanosoma cruzi glucokinase (TcGlcK) (Trypanosoma cruzi)", 1.48),
    ("Cc1cc(OCC/N=C/c2c(O)c(O)c(C(C)C)c3cc(C)c(-c4c(C)cc5c(C(C)C)c(O)c(O)c(/C=N/CCOc6cc(C)c(Cl)c(C)c6Cl)c5c4O)c(O)c23)c(Cl)c(C)c1Cl (atropisomer, axis not shown) [Inhibitor 79]", "Trypanosoma cruzi glucokinase (TcGlcK) (Trypanosoma cruzi)", 2.10),
    ("Cc1cc2c(C(C)C)c(O)c(O)c(/C=N/CCOc3ccc(C4CCCCC4)cc3)c2c(O)c1-c1c(C)cc2c(C(C)C)c(O)c(O)c(/C=N/CCOc3ccc(C4CCCCC4)cc3)c2c1O (atropisomer, axis not shown) [Inhibitor 80]", "Trypanosoma cruzi glucokinase (TcGlcK) (Trypanosoma cruzi)", 1.07),
    ("Cc1cc(C(=O)N/N=C/c2c(O)c(O)c(C(C)C)c3cc(C)c(-c4c(C)cc5c(C(C)C)c(O)c(O)c(/C=N/NC(=O)c6cc(C)[nH]n6)c5c4O)c(O)c23)n[nH]1 [Inhibitor 4]", "Trypanosoma cruzi glucokinase (TcGlcK) (Trypanosoma cruzi)", 1.28),
    ("Cc1cc2c(C(C)C)c(O)c(O)c(/C=N/Nc3cccc(Cl)n3)c2c(O)c1-c1c(C)cc2c(C(C)C)c(O)c(O)c(/C=N/Nc3cccc(Cl)n3)c2c1O [Inhibitor 9]", "Trypanosoma cruzi glucokinase (TcGlcK) (Trypanosoma cruzi)", 1.04),
    ("Cc1cc(-c2ccc(N/C=C3\\C(=O)C(O)=C(C(C)C)c4cc(C)c(-c5c(C)cc6c(c5O)/C(=C/Nc5ccc(-c7ccc(N)c(C)c7)cc5C)C(=O)C(O)=C6C(C)C)c(O)c43)c(C)c2)ccc1N (atropisomer, axis not shown) [Inhibitor 17]", "Trypanosoma cruzi glucokinase (TcGlcK) (Trypanosoma cruzi)", 2.73),
    ("Cc1cc2c(C(C)C)c(O)c(O)c(/C=N/c3cccc(N4CCCC4=O)c3)c2c(O)c1-c1c(C)cc2c(C(C)C)c(O)c(O)c(/C=N/c3cccc(N4CCCC4=O)c3)c2c1O (atropisomer, axis not shown) [Inhibitor 87]", "Trypanosoma cruzi glucokinase (TcGlcK) (Trypanosoma cruzi)", 1.25),
]
